- PROCEDURE_SUMMARY: cAMP Responsive Elements (CRE) small molecule antagonists, cell-based qHTS assay: qHTS cell viability counter screen (AID 2060913); also: nearly all actives have a fitted effect of over 40% in size
- ASSAY_SETUP: CRE-bla HEK293T viability, CellTiter-Glo luminescence, 5 h; series mostly up to 92.4 µM
Records with an inconclusive call do not appear. Calls of active or inactive are those of the source. Calls follow the shape of the dose curve; as a rule, active = well fitted cell-killing curve with a large enough effect in the repeat runs; inconclusive = weak or mixed curves, or effect the other way; inactive = flat fitted curve, though single readings scatter.
Would you mind answering with one of these outcomes? active, inactive

Check the results log: what was the call for CCN(CC)N=O ?
inactive

What would you report for c1cncc([C@@H]2CCCCN2)c1 ?
inactive

What would you report for O=[N+]([O-])c1ccc(O)c([N+](=O)[O-])c1 ?
active

What would you report for NNC(=S)NN ?
inactive

What would you report for CC(C)C#N ?
inactive

What would you report for N#Cc1c(Cl)c(Cl)c(Cl)c(C#N)c1Cl ?
inactive

What would you report for CC(C)NCC(O)c1ccc(N)c(C#N)c1 (stereo not drawn) ?
inactive

What would you report for C[N+]1(CCC(C(N)=O)(c2ccccc2)c2ccccc2)CCCCC1 ?
inactive
